# assay.target: T1, human vascular endothelial growth factor receptor-2 Fc chimera (KDR-Fc) (human, UniProt P35968 20-764)
# T1 construct: range 1-764; purchased from R&D Systems; also called hKDR; human VEGF-R2-Fc; not shown: human IgG1 Fc
# T1 sequence (P35968 20-764 limits assumed, change not shown, form in doubt): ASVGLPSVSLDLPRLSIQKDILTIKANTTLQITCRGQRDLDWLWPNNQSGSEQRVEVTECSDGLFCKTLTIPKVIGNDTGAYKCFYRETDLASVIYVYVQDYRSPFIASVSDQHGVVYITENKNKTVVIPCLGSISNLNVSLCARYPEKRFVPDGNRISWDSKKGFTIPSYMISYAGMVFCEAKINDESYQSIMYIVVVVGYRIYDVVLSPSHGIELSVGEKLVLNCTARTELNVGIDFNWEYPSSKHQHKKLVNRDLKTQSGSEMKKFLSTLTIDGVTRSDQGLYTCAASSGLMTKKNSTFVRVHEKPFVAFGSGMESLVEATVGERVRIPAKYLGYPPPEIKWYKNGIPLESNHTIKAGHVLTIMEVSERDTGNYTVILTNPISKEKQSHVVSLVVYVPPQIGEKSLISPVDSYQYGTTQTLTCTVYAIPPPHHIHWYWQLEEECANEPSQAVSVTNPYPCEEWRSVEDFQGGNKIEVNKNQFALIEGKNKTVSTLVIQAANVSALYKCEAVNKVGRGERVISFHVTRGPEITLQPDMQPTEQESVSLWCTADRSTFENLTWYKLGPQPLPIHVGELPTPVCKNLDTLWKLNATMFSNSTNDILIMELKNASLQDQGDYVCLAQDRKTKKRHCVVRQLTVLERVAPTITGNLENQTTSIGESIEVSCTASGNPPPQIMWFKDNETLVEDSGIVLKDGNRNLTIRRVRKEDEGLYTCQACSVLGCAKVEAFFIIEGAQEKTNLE
# test.details: radioactive equilibrium binding, 1 nM KDR-Fc
endpoint.label: Binding to 1 nM KDR, %

- 4F12 PR3 (designed binder, tag left out) EVVAATPTSLLISWRHPHFPTRYYRITYGETGGNSPVQEFTVPLQPPTATISGLKPGVDYTITGYAVTVTQNGHELITPISINYRT: 13%
- 1′DelE12 PR4 (designed binder, tag left out) EVVAATPTSLLISWRHPHFPTRYYRITYGETGGNSPVQEFTVPLQPPTATISGLKPGVDYTITGYAVTVAQSDHELFTPISINYRT: 13%
- 3G5 PR3 (designed binder, tag left out) EVVAATPTSLLISWRHPHFPTRYYRITYGETGGNSPVQEFTVPLQPPTATISGLKPGVDYTITGYAVTLGENDRKLITPISINYRT: 13%
- 3G10 PR3 (designed binder, tag left out) EVVAATPTSLLISWRHPHFPTRYYRITYGETGGNSPVQEFTVPLQPPTATISGLKPGVDYTITGYAVTVVHNGHEILTPISINYRT: 10%
- 2′F6-PR4 (designed binder, tag left out) VSDVPRDLEVVAATPTSLLISWRHPHFPTRYYRITYGETGGNSPVQEFTVPLQPPTATISGLKPGVDYTITGYAVTLGWNDHELYIPISINYRT: 4%
